- Assayed system: chymotrypsin-like activity of the 20S proteasome (Homo sapiens, UniProt P20618+P28074)
- Construct: purified human placenta 20S proteasome; tissue Diabetes Forschungsinstitut, Düsseldorf, Germany; host or cells: human placenta
- Test description: Inhibition of the chymotrypsin-like activity of the 20S proteasome (Suc-LLVY-AMC hydrolysis)
- Format: biochemical
- Condition context: purified human placenta 20S proteasome, Suc-LLVY-AMC substrate, read-out: IC50 [μM] (results of one or two experiments)
Readout kind: IC50 (µM)

Here's what some known entries look like.
INSERT INTO assay_data (record_smiles, assayed_system, numeric_readout) VALUES
  ('COc1cc(C[C@H](Nc2cccc(-c3ccccn3)c2)C(=O)N[C@H](C(=O)N[C@@H](CC(C)C)B(O)O)C(C)C)cc(OC)c1OC', 'chymotrypsin-like activity of the 20S proteasome (Homo sapiens, UniProt P20618+P28074)', 0.0017),
  ('COc1ccc(C[C@H](Nc2cccc(-c3ccccc3)c2)C(=O)N[C@@H](C)C(=O)N[C@@H](CC(C)C)B2O[C@@H]3C[C@@H]4C[C@@H](C4(C)C)[C@]3(C)O2)c(OC)c1OC', 'chymotrypsin-like activity of the 20S proteasome (Homo sapiens, UniProt P20618+P28074)', 0.0019);

a: COc1ccc(C[C@H](Nc2cccc(-c3ccccc3)c2)C(=O)N[C@H](C(=O)N[C@@H](CC(C)C)B(O)O)C(C)C)c(OC)c1OC
b: CC(C)C[C@H](NC(=O)[C@@H](NC(=O)[C@H](Cc1ccc(OCc2ccccc2)cc1)Nc1cccc(-c2ccccc2)c1)C(C)C)B1O[C@@H]2C[C@@H]3C[C@@H](C3(C)C)[C@]2(C)O1
c: COc1cc(C[C@H](Nc2cccc(-c3ccccn3)c2)C(=O)N[C@H](C(=O)N[C@@H](CC(C)C)B2O[C@@H]3C[C@@H]4C[C@@H](C4(C)C)[C@]3(C)O2)C(C)C)cc(OC)c1OC
Query block: Order the records, beginning with the lowest IC50 and ending with the highest. Hello, could you send the labels back in the order asked? Thank you.
Result block: c, a, b
(c: 0.0013 µM, a: 0.0059 µM, b: 0.0093 µM)

###

- Assayed system: chymotrypsin-like activity of the 20S proteasome (Homo sapiens, UniProt P20618+P28074)
- Construct: purified human placenta 20S proteasome; tissue Diabetes Forschungsinstitut, Düsseldorf, Germany; host or cells: human placenta
- Test description: Inhibition of the chymotrypsin-like activity of the 20S proteasome (Suc-LLVY-AMC hydrolysis)
- Format: biochemical
- Condition context: purified human placenta 20S proteasome, Suc-LLVY-AMC substrate, read-out: IC50 [μM] (results of one or two experiments)
Readout kind: IC50 (µM)

Here's what some known entries look like.
INSERT INTO measurements (molecule, reading_unit, numeric_readout) VALUES
  ('COc1cc(C[C@H](Nc2cccc(-c3ccccc3)c2)C(=O)N[C@H](C(=O)NC(CC(C)C)B2OC(C)(C)C(C)(C)O2)C(C)C)cc(OC)c1OC (some centres unmarked) [Example 23]', 'µM', 0.0021),
  ('COc1cc(C[C@H](NC(=O)Cc2cccc(Oc3ccccc3)c2)C(=O)N[C@H](C(=O)N[C@@H](CC(C)C)B(O)O)C(C)C)cc(OC)c1OC [Example 28]', 'µM', 0.0008),
  ('COc1ccc(C[C@H](NC(=O)Cc2cccc(Oc3ccccc3)c2)C(=O)N[C@H](C(=O)N[C@@H](CC(C)C)B2O[C@@H]3C[C@@H]4C[C@@H](C4(C)C)[C@]3(C)O2)C(C)C)cc1OC [Example 25]', 'µM', 0.0008),
  ('COc1ccc(C[C@H](NC(=O)CCc2ccccc2)C(=O)N[C@@H](C)C(=O)N[C@@H](CC(C)C)B2O[C@@H]3C[C@@H]4C[C@@H](C4(C)C)[C@]3(C)O2)c(OC)c1OC [Example 47]', 'µM', 0.0008),
  ('COc1cc(C[C@H](Nc2cccc(-c3ccccc3)c2)C(=O)N[C@H](C(=O)N[C@@H](Cc2ccccc2)B(O)O)C(C)C)cc(OC)c1OC [Example 50]', 'µM', 0.0023),
  ('CC(C)C[C@H](NC(=O)[C@@H](NC(=O)[C@H](Cc1ccc(OCc2ccccc2)cc1)NC(=O)Cc1cccc(OCc2ccccc2)c1)C(C)C)B(O)O [Example 30]', 'µM', 0.0059);

a: COc1ccc(C[C@H](Nc2cccc(-c3ccccc3)c2)C(=O)N[C@@H](CC(C)C)C(=O)N[C@@H](CC(C)C)B(O)O)cc1 [Example 36]
b: COc1cc(C[C@H](NC(=O)Cc2cccc(Oc3ccccc3)c2)C(=O)N[C@H](C(=O)N[C@@H](CC(C)C)B2O[C@@H]3C[C@@H]4C[C@@H](C4(C)C)[C@]3(C)O2)C(C)C)cc(OC)c1OC [Example 27]
Query block: Of the pair a and b , name the member with the lesser recorded IC50. Which one? Tell me its label.
Result block: b
(b: 0.0003 µM, a: 0.0023 µM)

P: COc1cc(C[C@H](Nc2cccc(-c3ccccc3)c2)C(=O)N[C@@H](C)C(=O)N[C@@H](CC(C)C)B(O)O)cc(OC)c1OC [Example 38]
Q: COc1ccc(C[C@H](NC(=O)Cc2cccc(Oc3ccccc3)c2)C(=O)N[C@H](C(=O)N[C@@H](CC(C)C)B(O)O)C(C)C)cc1OC [Example 26]
Query block: Between the two listed entries P and Q , which has its IC50 at the higher number? Which one? Tell me its label.
Result block: P

###

- Assayed system: chymotrypsin-like activity of the 20S proteasome (Homo sapiens, UniProt P20618+P28074)
- Construct: purified human placenta 20S proteasome; tissue Diabetes Forschungsinstitut, Düsseldorf, Germany; host or cells: human placenta
- Test description: Inhibition of the chymotrypsin-like activity of the 20S proteasome (Suc-LLVY-AMC hydrolysis)
- Assay type: biochemical
- Condition context: purified human placenta 20S proteasome, Suc-LLVY-AMC substrate, read-out: IC50 [μM] (results of one or two experiments)
Readout kind: IC50 (µM)

Here's what some known entries look like.
INSERT INTO assay_data (molecule, readout_kind, reading_unit, numeric_readout) VALUES
  ('CC(C)C[C@H](NC(=O)[C@@H](NC(=O)[C@H](Cc1ccc(OCc2ccccc2)cc1)NC(=O)Cc1cccc(OCc2ccccc2)c1)C(C)C)B1O[C@@H]2C[C@@H]3C[C@@H](C3(C)C)[C@]2(C)O1', 'IC50', 'µM', 0.004),
  ('COc1ccc(C[C@H](Nc2cccc(-c3ccccc3)c2)C(=O)N[C@@H](CC(C)C)C(=O)N[C@@H](CC(C)C)B2O[C@@H]3C[C@@H]4C[C@@H](C4(C)C)[C@]3(C)O2)cc1', 'IC50', 'µM', 0.0023),
  ('COc1ccc(C[C@H](Nc2cccc(-c3ccccc3)c2)C(=O)N[C@H](C(=O)N[C@@H](Cc2ccccc2)B(O)O)C(C)C)cc1', 'IC50', 'µM', 0.005);

1: COc1ccc(C[C@H](Nc2cccc(-c3ccccc3)c2)C(=O)N[C@@H](CC(C)C)C(=O)N[C@@H](CC(C)C)B2O[C@@H]3C[C@@H]4C[C@@H](C4(C)C)[C@]3(C)O2)cc1OC
2: COc1cc(C[C@@H](Nc2cccc(-c3ccccc3)c2)C(=O)N[C@H](C(=O)N[C@@H](CC(C)C)B(O)O)C(C)C)cc(OC)c1OC
3: COc1ccc(C[C@H](Nc2cccc(-c3ccccc3)c2)C(=O)N[C@H](C(=O)N[C@@H](CC(C)C)B2O[C@@H]3C[C@@H]4C[C@@H](C4(C)C)[C@]3(C)O2)C(C)C)c(OC)c1OC
Query block: Put the items in sequence by IC50, from largest down. Hello, could you send the labels back in the order asked? Thank you.
Result block: 3, 1, 2
(3: 0.0071 µM, 1: 0.0026 µM, 2: 0.0017 µM)

A: COc1cc(C[C@H](Nc2cccc(C(C)C)c2)C(=O)N[C@H](C(=O)N[C@@H](CC(C)C)B2O[C@@H]3C[C@@H]4C[C@@H](C4(C)C)[C@]3(C)O2)C(C)C)cc(OC)c1OC
B: COc1cc(C[C@H](Nc2cccc(-c3ccccc3)c2)C(=O)N[C@H](C(=O)NC(CC(C)C)B(O)O)C(C)C)cc(OC)c1OC (stereo partly drawn)
Query block: Between the two listed entries A and B , which has its IC50 at the higher number? Which one? Tell me its label.
Result block: A
(A: 0.0039 µM, B: 0.0021 µM)

P: COc1cc(C[C@H](Nc2cccc(-c3ccccc3)c2)C(=O)N[C@@H](CC(C)C)C(=O)N[C@@H](CC(C)C)B2O[C@@H]3C[C@@H]4C[C@@H](C4(C)C)[C@]3(C)O2)cc(OC)c1OC
Q: CC(C)C[C@H](NC(=O)[C@@H](NC(=O)[C@H](Cc1ccc(OCc2ccccc2)cc1)Nc1cccc(-c2ccccc2)c1)C(C)C)B(O)O
Query block: Of the pair P and Q , name the member with the lesser recorded IC50. Which one? Tell me its label.
Result block: Q
